Reported CC50 at 6 days values for the following compounds.
# Method summary: Cytotoxicity on NHDF cells in the anti-HCMV cytopathogenicity test
# Type: cell-based
# Settings: human, NHDF cells (human prepuce fibroblasts), 6 days incubation, visual assessment of cytotoxic effects vs untreated cell control
Return type: number; implicit unit µM.

Please fill in: CC50 at 6 days reported for O=C(O)CC1c2cccc(F)c2N=C(c2ccc(-c3ccc(F)cc3)cc2)N1c1cccc(C(F)(F)F)c1 (racemic) = 15

Please fill in: CC50 at 6 days reported for COc1cccc(-c2ccc(C3=Nc4c(F)cccc4C(CC(=O)O)N3c3cc(C(F)(F)F)ccc3OC)cc2)c1 (racemic) = 15

Please fill in: CC50 at 6 days reported for Cc1cc(-c2ccc(C3=Nc4c(F)cccc4C(CC(=O)O)N3c3cccc(C(F)(F)F)c3)cc2)ccc1F (stereo not drawn) = 12

---

# Method summary: Cytotoxicity on NHDF cells in the anti-HCMV cytopathogenicity test
# Assay type: cell-based
# Settings: human, NHDF cells (human prepuce fibroblasts), 6 days incubation, visual assessment of cytotoxic effects vs untreated cell control
Measured metric: CC50 at 6 days
Answer format reminder: number followed by unit.

# example entries with known answers
>>> obs_value("O=C(O)CC1c2cccc(F)c2N=C(c2ccc(-c3ccc(F)cc3)cc2F)N1c1cccc(C(F)(F)F)c1 (stereo not shown)")
"31 µM"
>>> obs_value("COc1ccc(C(F)(F)F)cc1N1C(c2ccc(-c3ccc(F)cc3)cc2)=Nc2c(F)cccc2C1CC(=O)O (racemic)")
"15 µM"
>>> obs_value("O=C(O)CC1c2cccc(F)c2N=C(c2ccc(-c3cccc(F)c3)cc2)N1c1cccc(C(F)(F)F)c1 (stereo not shown)")
"12 µM"

Consider the additional molecule presented here.
Please fill in: CC50 at 6 days reported for Cc1cccc(-c2ccc(C3=Nc4c(F)cccc4C(CC(=O)O)N3c3cccc(C(F)(F)F)c3)cc2)c1 (racemic) = 15 µM

---

Reported SI HCMV (selectivity index = CC50 (NHDF)/EC50 (HCMV)) values for the following molecules.
# System: HCMV
# Method summary: Anti-HCMV cytopathogenicity test
# Assay type: cell-based, human cytomegalovirus
# Settings: ratio CC50 (NHDF)/EC50 (HCMV)

>>> obs_value("O=C(O)CC1c2cccc(F)c2N=C(c2ccc(-c3ccc(F)cc3)cc2)N1c1cccc(C(F)(F)F)c1 (racemic) [Example 2]")
171

Please fill in: SI HCMV (selectivity index = CC50 (NHDF)/EC50 (HCMV)) reported for Cc1cc(-c2ccc(C3=Nc4c(F)cccc4C(CC(=O)O)N3c3cccc(C(F)(F)F)c3)cc2)ccc1F (stereo not drawn) [Example 5] = 16

Please fill in: SI HCMV (selectivity index = CC50 (NHDF)/EC50 (HCMV)) reported for Cc1cccc(-c2ccc(C3=Nc4c(F)cccc4C(CC(=O)O)N3c3cccc(C(F)(F)F)c3)cc2)c1 (racemic) [Example 3] = 115

Please fill in: SI HCMV (selectivity index = CC50 (NHDF)/EC50 (HCMV)) reported for O=C(O)CC1c2cccc(F)c2N=C(c2ccc(-c3cccc(F)c3)cc2)N1c1cccc(C(F)(F)F)c1 (stereo not drawn) [Example 6] = 34

Please fill in: SI HCMV (selectivity index = CC50 (NHDF)/EC50 (HCMV)) reported for COc1ccc(C(F)(F)F)cc1N1C(c2ccc(-c3ccc(F)cc3)cc2)=Nc2c(F)cccc2C1CC(=O)O (racemic) [Example 32] = 1500

Please fill in: SI HCMV (selectivity index = CC50 (NHDF)/EC50 (HCMV)) reported for O=C(O)CC1c2cccc(F)c2N=C(c2ccc(-c3ccc(F)cc3)cc2)N1c1cccc(C(F)(F)F)c1 (racemic) [Example 1] = 150

Please fill in: SI HCMV (selectivity index = CC50 (NHDF)/EC50 (HCMV)) reported for COc1cccc(-c2ccc(C3=Nc4c(F)cccc4C(CC(=O)O)N3c3cc(C(F)(F)F)ccc3OC)cc2)c1 (racemic) [Example 36] = 1500

Please fill in: SI HCMV (selectivity index = CC50 (NHDF)/EC50 (HCMV)) reported for Cc1cccc(-c2ccc(C3=Nc4c(F)cccc4C(CC(=O)O)N3c3cccc(C(F)(F)F)c3)cc2)c1 (racemic) [Example 4] = 143

Please fill in: SI HCMV (selectivity index = CC50 (NHDF)/EC50 (HCMV)) reported for O=C(O)CC1c2cccc(F)c2N=C(c2ccc(-c3ccc(F)cc3)cc2F)N1c1cccc(C(F)(F)F)c1 (stereo not drawn) [Example 7] = 17
